Provide the recorded t1/2 for the entries that follow.
# System: HeLa
# Measurement Description: Stability in human HeLa cell homogenate assessed as half life of hydrolysis
# Type: ADME, cell-based
Express your answer in min, writing the number without its unit.

Task: // lookup t1/2 for CC(C)[C@H](N)C(=O)OCCOCn1cnc2c(=O)[nH]c(N)nc21 [VALACYCLOVIR]
Output: 142.2

Task: // lookup t1/2 for "CC[C@H](C)[C@H](N)C(=O)OCc1cccc(N=C(N)N)c1"
Output: 137.2

Task: // lookup t1/2 for "CC(C)[C@H](N)C(=O)OCc1cccc(NC(=N)N)c1"
Output: 20.3

---

# Measurement Description: Stability in human HeLa cells expressing hPEPT1 after 60 mins
# Format: ADME, cell-based
# Applied Conditions: read-out: Stability
Recorded Endpoint: remaining at 1 h (%)
Express your answer in %, writing the number without its unit.

Task: // lookup remaining at 1 h for "CC(C)[C@H](N)C(=O)OCc1cccc(NC(=N)N)c1"
Output: 96.9

Task: // lookup remaining at 1 h for "CC[C@H](C)[C@H](N)C(=O)OCc1cccc(N=C(N)N)c1"
Output: 98.7

Task: // lookup remaining at 1 h for "NC(N)=Nc1cccc(COC(=O)[C@@H](N)Cc2ccccc2)c1"
Output: 83.8

Task: // lookup remaining at 1 h for CC(C)[C@H](N)C(=O)OCCOCn1cnc2c(=O)[nH]c(N)nc21 [VALACYCLOVIR]
Output: 96.8
